fold change of affinity overview
# tgt: Human CD137 ECD (human)
# Sequence (chain, as listed by the source limits assumed): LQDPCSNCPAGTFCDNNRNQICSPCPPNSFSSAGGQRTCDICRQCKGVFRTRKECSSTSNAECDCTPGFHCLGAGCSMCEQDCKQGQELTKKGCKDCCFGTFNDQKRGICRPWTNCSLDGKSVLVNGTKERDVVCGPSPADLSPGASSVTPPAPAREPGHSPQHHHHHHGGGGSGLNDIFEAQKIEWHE
# experimentSummary: SPR, vs parent H183/L072
Could you give me the number in fold? Just the number is fine.

Recorded fold change of affinity, per entry:
binder	val
dBBDu183H L100dD / dBBDu072L (antibody, name in Kabat numbering, V domains shown) VH: QVQLVESGGGLVQPGRSLRLSCAASGFTFSNAWMHWVRQAPGKGLEWVAQIKDKGNAYAAYYAPSVKGRFTISRDDSKNSIYLQMNSLKTEDTAVYYCHYVHYASASTVDPAFGVDAWGQGTTVTVSS VL: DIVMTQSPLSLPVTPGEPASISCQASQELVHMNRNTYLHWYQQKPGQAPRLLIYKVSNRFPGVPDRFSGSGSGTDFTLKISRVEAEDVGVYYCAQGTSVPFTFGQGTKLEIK	0
dBBDu183H A98T / dBBDu072L (antibody, name in Kabat numbering, V domains shown) VH: QVQLVESGGGLVQPGRSLRLSCAASGFTFSNAWMHWVRQAPGKGLEWVAQIKDKGNAYAAYYAPSVKGRFTISRDDSKNSIYLQMNSLKTEDTAVYYCHYVHYTSASTVLPAFGVDAWGQGTTVTVSS VL: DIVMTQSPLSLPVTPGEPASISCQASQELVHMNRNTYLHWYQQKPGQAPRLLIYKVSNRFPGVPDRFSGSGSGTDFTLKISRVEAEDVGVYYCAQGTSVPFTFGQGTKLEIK	0

Which fold change of affinity value is on record for dBBDu183H A98H / dBBDu072L (antibody, name in Kabat numbering, V domains shown) VH: QVQLVESGGGLVQPGRSLRLSCAASGFTFSNAWMHWVRQAPGKGLEWVAQIKDKGNAYAAYYAPSVKGRFTISRDDSKNSIYLQMNSLKTEDTAVYYCHYVHYHSASTVLPAFGVDAWGQGTTVTVSS VL: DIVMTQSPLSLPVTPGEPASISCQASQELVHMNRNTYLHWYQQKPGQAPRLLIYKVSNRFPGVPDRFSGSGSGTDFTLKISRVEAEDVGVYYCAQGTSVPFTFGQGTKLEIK ?
0
